TARGET_OR_TEST_SYSTEM: PRMT1 (Homo sapiens, UniProt Q99873)
Construct: host or cells: RKO cells
Sequence (Q99873 whole entry): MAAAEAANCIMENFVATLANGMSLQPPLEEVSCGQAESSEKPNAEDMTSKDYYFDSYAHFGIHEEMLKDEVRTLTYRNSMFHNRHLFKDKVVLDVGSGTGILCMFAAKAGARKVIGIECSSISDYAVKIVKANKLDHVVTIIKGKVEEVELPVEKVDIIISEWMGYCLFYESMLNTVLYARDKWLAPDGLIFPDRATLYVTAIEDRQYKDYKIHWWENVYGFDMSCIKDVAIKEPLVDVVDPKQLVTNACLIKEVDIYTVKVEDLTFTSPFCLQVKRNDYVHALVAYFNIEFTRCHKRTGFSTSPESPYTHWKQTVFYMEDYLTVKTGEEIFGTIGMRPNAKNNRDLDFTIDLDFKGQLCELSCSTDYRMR
ASSAY_REMARKS: RKO methylation assay, In Cell Western (ICW) for mono-methyl arginine and DNA content
Assay type: cell-based
DETAILS: RKO cells, 72 hours, mono-methyl arginine signal normalised to DRAQ5, percent activation
PRMT1 RGG ICW EC30 of 0.2 µM or higher: Satisfied. Under 0.2 µM: Not satisfied.

MOLECULE	CLASSIFICATION
CC[C@]12CC[C@](CC)(C[C@H](c3n[nH]cc3CN(C)CCNC)C1)O2	Satisfied
CNCCN(C)Cc1c[nH]nc1[C@H]1CC[C@@]2(CC1)COC(C)(C)C2	Not satisfied
CNCCN(C)Cc1cncn1[C@H]1CC[C@@]2(CC1)CC(C)(C)CO2	Satisfied
CNCCN(C)Cc1c[nH]nc1C1CCC(C)(C)[C@H](CO)C1 (some centres unmarked)	Satisfied

====

# PRMT1 RGG ICW EC30 per record follows
TARGET_OR_TEST_SYSTEM: PRMT1 (Homo sapiens)
Construct: host or cells: RKO cells
ASSAY_REMARKS: RKO methylation assay, In Cell Western (ICW) for mono-methyl arginine and DNA content
Type: cell-based
DETAILS: RKO cells, 72 hours, mono-methyl arginine signal normalised to DRAQ5, percent activation
Counter-ions that a name gives are not always drawn.
MEASURED_ENDPOINT: PRMT1 RGG ICW EC30 (µM)

COMPOUND	MEASURED_ENDPOINT	MODIFIER_SIGN	VALUE_REPORTED
CN(CCN)Cc1nn(C)cc1[C@H]1CC[C@]2(CC1)CC(C)(C)CO2 [compound 102]	PRMT1 RGG ICW EC30	=	0.4467
CNCCN(C)Cc1cn(C)nc1C1CCC(C)(C)[C@@H](C(=O)NCC(C)C)C1 (some centres unmarked) [compound 25]	PRMT1 RGG ICW EC30	>	5.0
CNCCN(C)Cc1c(Cl)ncn1[C@H]1CC[C@]2(CC1)CC(C)(C)CO2 [compound 97]	PRMT1 RGG ICW EC30	>	10
CNCCN(C)Cc1c[nH]nc1[C@@H]1CC[C@@H](OCCCOC)C2(CCCC2)C1 (racemic) [compound 26]	PRMT1 RGG ICW EC30	=	0.2172
CNCCN(C)Cc1c[nH]nc1C1CCC(OCCCOC)C2(CCCC2)C1 (mixture of isomers) [compound 19, dihydrochloride]	PRMT1 RGG ICW EC30	=	0.4403
CNCCN(C)Cc1sc(C)nc1[C@H]1CC[C@@]2(CC1)CC(C)(C)CO2 [compound 78]	PRMT1 RGG ICW EC30	=	0.02959
CNCCN(C)Cc1nc(C)sc1[C@H]1CC[C@]2(CC1)CC(C)(C)CO2 [compound 99]	PRMT1 RGG ICW EC30	=	0.09553
CNCCN(C)Cc1c[nH]nc1C1CCC(C)(C)[C@H](COCCCOC)C1 (some centres unmarked) [compound 30]	PRMT1 RGG ICW EC30	=	0.209

====

TARGET_OR_TEST_SYSTEM: PRMT1 (Homo sapiens, UniProt Q99873)
Construct: host or cells: RKO cells
ASSAY_REMARKS: RKO methylation assay, In Cell Western (ICW) for mono-methyl arginine and DNA content
Assay type: cell-based
DETAILS: RKO cells, 72 hours, mono-methyl arginine signal normalised to DRAQ5, percent activation
Classify as follows. Reported PRMT1 RGG ICW EC30 greater than or equal to 400 nM: fulfilled. Reported PRMT1 RGG ICW EC30 below: not fulfilled.

COMPOUND	TARGET_OR_TEST_SYSTEM	CLASSIFICATION
Cc1[nH]nc([C@H]2CC[C@]3(CC2)CC(C)(C)CO3)c1CN(C)CCN [compound 52]	PRMT1 (Homo sapiens, UniProt Q99873)	not fulfilled
CNCCN(C)Cc1c[nH]nc1[C@H]1CC[C@]2(CCN(CCC(C)C)C2=O)CC1 [compound 10]	PRMT1 (Homo sapiens, UniProt Q99873)	fulfilled
CCOCC1(COCC)CCC(c2nn(C)cc2CN(C)CCNC)CC1 [compound 122]	PRMT1 (Homo sapiens, UniProt Q99873)	not fulfilled
CNCCN(C)Cc1nn[nH]c1[C@H]1CC[C@]2(CC1)CC(C)(C)CO2 [compound 89]	PRMT1 (Homo sapiens, UniProt Q99873)	fulfilled
Cc1[nH]nc(C2CCC3(CC2)CC(C)(C)CO3)c1CN(C)CCN (centres unmarked) [compound 59]	PRMT1 (Homo sapiens, UniProt Q99873)	not fulfilled
CCC1(CC)C[C@]2(CC[C@H](c3n[nH]cc3CN(C)CCNC)CC2)NC1=O [compound 47]	PRMT1 (Homo sapiens, UniProt Q99873)	not fulfilled
CC[C@]12CC[C@](CC)(C[C@@H](c3n[nH]cc3CN(C)CCNC)C1)O2 [compound 38]	PRMT1 (Homo sapiens, UniProt Q99873)	fulfilled
CNCCN(C)Cc1nocc1[C@H]1CC[C@@]2(CC1)CC(C)(C)CO2 [compound 117]	PRMT1 (Homo sapiens, UniProt Q99873)	fulfilled
